Reference for the values: PubChem BioAssay (NCI)

Tested on: MALME-3M melanoma
testSummary: NCI-60 one-dose screen, 48 h (100 = growth as untreated, 0 = no growth, -100 = all killed)
setupConditions: 10 µM unless noted
Description: Cells are grown in 96 well plates and exposed to the test compound for 48 hours. Compounds are tested at a single concentration, which is 10^-5 M for most compounds. The reported endpoint is percent growth (GI% or GIPRCNT), where numbers from 0 - 100% represent growth inhibition, and numbers from -100% - 0 represent cell death. For example, a value of 40 represents 60% growth inhibition. A value of 0 means no net growth occurred over the course of the experiment. […]
Compounds without any hit were thinned out: in the full panel of roughly 83,000, 20% have a hit.
This listing pairs compounds with measured growth.
Write down the numeric answer in % and omit the unit.

compound	readoutType	unitOfMeasure	observed
NC(=S)N/N=C/c1ncccc1O	growth	%	54

Qu. Item CC(C)=CCCC(C)C1=C(O)C(=O)C(C)=CC1=O (centres undefined) has what recorded growth?
Ans. 69.3

Qu. # query: growth of entry `O=[N+]([O-])c1cc(-c2ccccc2)c(O)c([N+](=O)[O-])c1`
Ans. 120

Qu. Param item = `O=[N+]([O-])c1ccc2c(c1)Cc1ccccc1-2` ; retrieve measured growth.
Ans. 95.7

Qu. Would you kindly share the measured growth for `Cc1cc(C)c([I+]c2c(C)cc(C)cc2C)c(C)c1` ?
Ans. -51.6

Qu. For the compound CCCCCCCCCCCC[N+]1(CCCCCCCCCCCC)CCCC(C)C1 (centres undefined) , what growth is on record?
Ans. -75.1

---

Each entry below lists one item and its recorded growth value.
System: TK-10 renal
testSummary: NCI-60 one-dose screen, 48 h (100 = growth as untreated, 0 = no growth, -100 = all killed)
setupConditions: 10 µM unless noted
The panel holds about 83,000 compounds, 20% with a hit somewhere; the sample as a whole holds those more often.
Numbers only; they are read as %.

Consider the worked cases shown below.
sampleSmiles	unitOfMeasure	growth
CN=C(N)N/N=C(\c1ccccc1)c1ccc(Br)cc1	%	21.6
c1ccc(-c2cc3cc4ccccc4cn3c2)cc1	%	101

Qu. What does the data say about its growth? Entry: `Cc1cc(Br)c2nsnc2c1[N+](=O)[O-]`
Ans. 36

---

Test system: UACC-62 melanoma
testSummary: NCI-60 one-dose screen, 48 h (100 = growth as untreated, 0 = no growth, -100 = all killed)
setupConditions: 10 µM unless noted
Experimental: Growth inhibition of the UACC-62 human tumor cell line is measured as a screen for anti-cancer activity. Cells are grown in 96 well plates and exposed to the test compound for 48 hours. Compounds are tested at a single concentration, which is 10^-5 M for most compounds. The reported endpoint is percent growth (GI% or GIPRCNT), where numbers from 0 - 100% represent growth inhibition, and numbers from -100% - 0 represent cell death. For example, a value of 40 represents 60% growth inhibition. […]
Compounds without any hit were thinned out: in the full panel of roughly 83,000, 20% have a hit. Calls of active or inactive are those of the source. The calls were made as follows: active = growth percent below 10; inactive = the rest.
readoutType: growth

compound	observed
CCCCCC[C@@H](O)C/C=C\CCCCCCCC(=O)OCCOC	90.6% (inactive)

Qu. Look up growth for this compound: CCCCC(CCc1ccc([N+](=O)[O-])cc1)(C(C)=O)C(=O)OCC (stereo unspecified)
Ans. 97.5% (inactive)

Qu. growth for `CCc1cnc2ccccc2c1/C=C/c1ccc(N(C)C)cc1` ?
Ans. 25.3% (inactive)

Qu. Given O=C(c1ccccc1)C(Br)[N+](=O)[O-] (stereo unspecified) , state its recorded growth.
Ans. 89.8% (inactive)

Qu. I'd like to know its growth. The compound in question is `Cn1c(-c2ccccc2)c(/C=C/C2=[N+](C)c3ccccc3C2(C)C)c2ccccc21`
Ans. -3.73% (active)

Qu. Query: growth; subject: `C/C=C/c1cc2c(c(=O)o1)C(=O)[C@@H](O)[C@H](C)O2`
Ans. 80.5% (inactive)
